# measured target: E. coli DNA gyrase (Escherichia coli, UniProt P0AES4+P0AES6)
# test name: biochemical
# protocol conditions: IC50 DNA gyrase
I'd appreciate it if you could supply IC50 values for the items below.

GET /values?readout=IC50&item= COc1ccc2ncc(=O)n([C@H]3CC[C@H](NCc4cc5c(=O)oc6ccc(F)cc6c5[nH]4)CC3)c2n1
< 100 nM

GET /values?readout=IC50&item= O=c1oc2ccc(F)cc2c2[nH]c(CN[C@H]3CC[C@H](n4c(=O)cnc5ccc(F)cc54)CC3)cc12
< 100 nM

GET /values?readout=IC50&item= O=C1COc2ncc(F)cc2N1[C@H]1CC[C@H](NCCNc2cc(=O)oc3ccc(F)cc23)CC1
470 nM

GET /values?readout=IC50&item= O=C1COc2ncc(F)cc2N1[C@H]1CC[C@H](NCc2cc3ncc4c(c3[nH]2)OCCO4)CC1
850 nM

GET /values?readout=IC50&item= O=c1oc2ccc(F)cc2c2[nH]c(CN[C@H]3CC[C@@H](n4c(=O)cnc5ncc(F)cc54)CC3)cc12
440 nM

GET /values?readout=IC50&item= COc1cnc2ncc(=O)n([C@H]3CC[C@@H](NCc4cc5c(=O)oc6ccc(F)cc6c5[nH]4)CC3)c2c1
110 nM

====

# measured target: E. coli Topoisomerase IV (Escherichia coli, UniProt P0AFI2+P20083)
# Sequence (P0AFI2 whole entry): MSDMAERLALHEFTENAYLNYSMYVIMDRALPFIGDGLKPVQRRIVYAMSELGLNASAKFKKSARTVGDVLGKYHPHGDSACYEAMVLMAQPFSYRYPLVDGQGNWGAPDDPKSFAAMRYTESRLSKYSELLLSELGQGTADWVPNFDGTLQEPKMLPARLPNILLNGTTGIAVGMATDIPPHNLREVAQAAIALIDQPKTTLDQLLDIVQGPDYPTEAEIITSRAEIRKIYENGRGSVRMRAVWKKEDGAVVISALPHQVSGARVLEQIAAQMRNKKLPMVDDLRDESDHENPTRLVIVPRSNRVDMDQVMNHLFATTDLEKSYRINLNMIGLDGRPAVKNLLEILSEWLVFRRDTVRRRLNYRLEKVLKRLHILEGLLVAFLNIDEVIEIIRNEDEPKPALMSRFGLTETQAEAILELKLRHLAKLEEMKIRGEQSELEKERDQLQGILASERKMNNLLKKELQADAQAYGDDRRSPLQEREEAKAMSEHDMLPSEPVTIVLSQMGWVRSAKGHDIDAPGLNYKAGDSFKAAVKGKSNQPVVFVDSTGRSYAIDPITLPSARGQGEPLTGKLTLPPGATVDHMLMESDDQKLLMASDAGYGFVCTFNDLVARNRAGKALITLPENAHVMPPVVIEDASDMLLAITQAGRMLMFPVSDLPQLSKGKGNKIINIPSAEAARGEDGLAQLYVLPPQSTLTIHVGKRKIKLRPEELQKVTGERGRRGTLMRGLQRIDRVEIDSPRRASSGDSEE
# Sequence (P20083 whole entry): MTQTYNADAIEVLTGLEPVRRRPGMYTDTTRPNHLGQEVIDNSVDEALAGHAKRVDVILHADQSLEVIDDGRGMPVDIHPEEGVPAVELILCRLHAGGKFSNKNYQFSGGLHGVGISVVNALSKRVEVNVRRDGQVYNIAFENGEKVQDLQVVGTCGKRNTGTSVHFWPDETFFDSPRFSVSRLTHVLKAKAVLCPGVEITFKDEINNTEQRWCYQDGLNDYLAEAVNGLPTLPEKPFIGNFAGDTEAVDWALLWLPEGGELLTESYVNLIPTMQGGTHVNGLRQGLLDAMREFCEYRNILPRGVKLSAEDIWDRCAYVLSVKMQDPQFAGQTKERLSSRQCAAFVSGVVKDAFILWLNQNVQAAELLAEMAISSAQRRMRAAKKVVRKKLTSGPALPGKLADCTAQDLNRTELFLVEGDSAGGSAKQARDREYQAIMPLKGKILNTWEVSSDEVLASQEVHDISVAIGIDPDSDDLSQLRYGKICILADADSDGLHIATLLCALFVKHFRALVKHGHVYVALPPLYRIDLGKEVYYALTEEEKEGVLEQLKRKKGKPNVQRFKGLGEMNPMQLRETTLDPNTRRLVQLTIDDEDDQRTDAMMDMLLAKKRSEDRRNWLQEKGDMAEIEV
# test name: biochemical
# protocol conditions: IC50 Topo IV
I'd appreciate it if you could supply IC50 values for the items below.

GET /values?readout=IC50&item= NC(=O)[C@]1(NCc2cc3c(=O)oc4ccc(F)cc4c3[nH]2)CC[C@H](N2C(=O)COc3ncc(F)cc32)CC1 [Compound 217]
0.69 µM

GET /values?readout=IC50&item= COc1ccc2ccc(=O)n([C@H]3CC[C@H](NCc4cc5c(=O)oc6ccc(F)cc6c5[nH]4)CC3)c2c1 [Compound 219]
0.22 µM

GET /values?readout=IC50&item= O=c1oc2ccccc2c2[nH]c(CNCC3CN(c4nccc5ccc(F)cc45)CCO3)cc12 (single isomer, unassigned) [Compound 183]
2.48 µM

GET /values?readout=IC50&item= COc1ccc2ncc(=O)n([C@H]3CC[C@H](NCc4cc5c(=O)oc6ccc(F)cc6c5[nH]4)CC3)c2n1 [Compound 201]
< 0.1 µM

GET /values?readout=IC50&item= N#Cc1ccc2ccc(=O)n([C@H]3CC[C@H](NCc4cc5c(=O)oc6ccc(F)cc6c5[nH]4)CC3)c2c1 [Compound 206]
< 0.1 µM

GET /values?readout=IC50&item= O=C1COc2ncc(F)cc2N1[C@H]1CC[C@H](NCCNc2cc(=O)oc3ccc(F)cc23)CC1 [Compound 354]
0.18 µM

GET /values?readout=IC50&item= O=c1nc(NCC(O)CN2CCN(c3nccc4cc[n+]([O-])cc34)CC2)c2cc(F)ccc2o1 (stereo not shown) [Compound 164]
1.78 µM

GET /values?readout=IC50&item= O=c1oc2ccc(F)cc2c2[nH]c(CN[C@H]3CC[C@H](n4c(=O)cnc5ccc(F)cc54)CC3)cc12 [Compound 211]
< 0.1 µM

GET /values?readout=IC50&item= O=c1oc2ccc(F)cc2c2[nH]c(CN[C@H]3CC[C@H](n4c(=O)cnc5ncc(F)cc54)CC3)cc12 [Compound 209]
1 µM

GET /values?readout=IC50&item= O=C1COc2ncc(F)cc2N1[C@H]1CC[C@H](NCc2cc3c(=O)oc4ccc(F)cc4c3[nH]2)CC1 [Compound 193]
1.38 µM

====

# measured target: S. aureus DNA gyrase (Staphylococcus aureus, UniProt P0A0K8+P20831)
# Sequence (P0A0K8 whole entry): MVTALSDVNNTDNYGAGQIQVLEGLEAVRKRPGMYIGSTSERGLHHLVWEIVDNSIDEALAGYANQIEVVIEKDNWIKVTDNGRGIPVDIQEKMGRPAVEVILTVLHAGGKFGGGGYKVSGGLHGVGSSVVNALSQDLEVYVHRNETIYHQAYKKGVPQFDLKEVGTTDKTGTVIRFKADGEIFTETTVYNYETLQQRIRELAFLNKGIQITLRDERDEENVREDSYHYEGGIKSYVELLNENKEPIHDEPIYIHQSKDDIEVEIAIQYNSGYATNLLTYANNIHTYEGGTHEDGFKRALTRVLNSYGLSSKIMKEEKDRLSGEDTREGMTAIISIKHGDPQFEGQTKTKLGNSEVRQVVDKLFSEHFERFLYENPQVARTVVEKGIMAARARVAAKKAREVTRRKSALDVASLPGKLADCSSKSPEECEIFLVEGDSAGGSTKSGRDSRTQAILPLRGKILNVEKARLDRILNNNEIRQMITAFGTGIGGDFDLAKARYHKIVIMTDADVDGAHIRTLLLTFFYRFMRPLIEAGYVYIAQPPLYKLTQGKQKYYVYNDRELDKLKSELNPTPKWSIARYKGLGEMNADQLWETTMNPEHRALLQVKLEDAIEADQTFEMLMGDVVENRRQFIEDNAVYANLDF
# Sequence (P20831 whole entry): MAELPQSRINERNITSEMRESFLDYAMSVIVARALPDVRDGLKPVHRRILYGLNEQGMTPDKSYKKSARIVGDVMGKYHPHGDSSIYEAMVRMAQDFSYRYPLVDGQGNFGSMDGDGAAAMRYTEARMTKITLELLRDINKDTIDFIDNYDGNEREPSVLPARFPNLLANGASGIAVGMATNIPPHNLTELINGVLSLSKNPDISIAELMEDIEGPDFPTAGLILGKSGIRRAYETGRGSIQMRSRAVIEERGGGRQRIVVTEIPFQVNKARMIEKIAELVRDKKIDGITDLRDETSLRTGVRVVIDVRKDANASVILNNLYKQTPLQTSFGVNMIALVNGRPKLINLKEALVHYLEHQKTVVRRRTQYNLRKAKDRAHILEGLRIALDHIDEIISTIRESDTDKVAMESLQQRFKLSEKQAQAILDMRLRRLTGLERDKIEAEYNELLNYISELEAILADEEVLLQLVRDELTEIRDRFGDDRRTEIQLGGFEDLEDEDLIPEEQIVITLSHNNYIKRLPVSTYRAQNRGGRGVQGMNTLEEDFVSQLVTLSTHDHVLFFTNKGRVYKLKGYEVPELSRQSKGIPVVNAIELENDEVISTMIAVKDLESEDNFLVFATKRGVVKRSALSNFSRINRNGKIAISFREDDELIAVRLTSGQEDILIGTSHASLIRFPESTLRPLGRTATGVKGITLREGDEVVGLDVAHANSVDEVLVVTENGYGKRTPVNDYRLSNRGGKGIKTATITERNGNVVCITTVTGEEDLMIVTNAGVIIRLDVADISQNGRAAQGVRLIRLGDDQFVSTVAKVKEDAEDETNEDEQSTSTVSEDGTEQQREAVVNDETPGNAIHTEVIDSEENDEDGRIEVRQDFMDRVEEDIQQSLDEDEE
# test name: biochemical
# protocol conditions: IC50 DNA gyrase
readout kind: IC50 (nM)
State just the number; it will be interpreted in nM.

# returns recorded IC50 (system: S. aureus DNA gyrase (Staphylococcus aureus, UniProt P0A0K8+P20831)) for COc1ccc2ncc(=O)n([C@H]3CC[C@H](NCc4cc5c(=O)oc6ccc(F)cc6c5[nH]4)CC3)c2n1
190

# returns recorded IC50 (system: S. aureus DNA gyrase (Staphylococcus aureus, UniProt P0A0K8+P20831)) for O=c1oc2ccccc2c2[nH]c(CNCC3CN(c4nccc5ccc(F)cc45)CCO3)cc12 (single isomer, unassigned) [Compound 182]
640

# returns recorded IC50 (system: S. aureus DNA gyrase (Staphylococcus aureus, UniProt P0A0K8+P20831)) for COc1cnc2c(c1)N([C@H]1CC[C@H](NCc3cc4c(=O)oc5ccc(F)cc5c4[nH]3)CC1)C(=O)CO2
580

# returns recorded IC50 (system: S. aureus DNA gyrase (Staphylococcus aureus, UniProt P0A0K8+P20831)) for O=C1COc2ncc(F)cc2N1[C@H]1CC[C@H](NCc2cc3c(=O)oc4cccnc4c3[nH]2)CC1
720

# returns recorded IC50 (system: S. aureus DNA gyrase (Staphylococcus aureus, UniProt P0A0K8+P20831)) for N#Cc1cnc2c(c1)N([C@H]1CC[C@H](NCc3cc4c(=O)oc5ccc(F)cc5c4[nH]3)CC1)C(=O)CO2
160
